Assayed Target: human Edg 1 receptor (Homo sapiens, UniProt P21453)
Construct: FLAG (N); expressed in transfected cells
Sequence (P21453 whole entry): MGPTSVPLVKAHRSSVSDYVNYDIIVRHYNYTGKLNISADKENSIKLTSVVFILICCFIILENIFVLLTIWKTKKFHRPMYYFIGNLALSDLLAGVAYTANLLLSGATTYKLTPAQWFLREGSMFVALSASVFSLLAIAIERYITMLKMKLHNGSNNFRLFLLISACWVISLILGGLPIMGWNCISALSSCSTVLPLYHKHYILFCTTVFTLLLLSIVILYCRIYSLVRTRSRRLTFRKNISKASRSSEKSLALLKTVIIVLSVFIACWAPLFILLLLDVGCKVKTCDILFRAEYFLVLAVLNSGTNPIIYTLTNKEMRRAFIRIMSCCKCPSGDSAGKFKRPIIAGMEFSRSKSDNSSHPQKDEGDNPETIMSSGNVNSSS
Test Name: GTP-γ-S assay using human Edg 1 receptors (scintillation proximity assay, CHO Flp-In membrane preparation)
Assay type: biochemical
Conditions: test compound at 10 μM; relative to high control 10 μM S1P = 100% activation; membranes of CHO Flp-In cells overexpressing human Edg 1; triplicate
Readout: Edg 1 receptor activation in percent of the activation by 10 μM S1P (% activation) (%)
Entry rule: numbers only, all in %.

See these solved cases before continuing.
Qu. Edg 1 receptor activation in percent of the activation by 10 μM S1P (% activation) for Cc1cc(-c2nc3ccc(Oc4ccccc4F)nc3o2)cc(C)c1OC(C)C(=O)O (stereo not shown) ?
Ans. 51

Qu. Edg 1 receptor activation in percent of the activation by 10 μM S1P (% activation) for Cc1cc(-c2nc3ccc(Oc4ccccc4F)nc3o2)cc(C)c1OCC(C)(C)C(=O)O ?
Ans. 86

Qu. Edg 1 receptor activation in percent of the activation by 10 μM S1P (% activation) for Cc1cc(-c2nc3ccc(Oc4ccccc4F)nc3o2)cc(C)c1OCC(=O)O ?
Ans. 74

Further cases:
Qu. Edg 1 receptor activation in percent of the activation by 10 μM S1P (% activation) for Cc1cc(-c2nc3ccc(Oc4ccccc4F)nc3o2)cc(C)c1OC(C)(C)C(=O)O ?
Ans. 39
